Reference source: ChEMBL document CHEMBL4602648

Biological target: Enoyl-[acyl-carrier-protein] reductase [NADH] (Mycobacterium tuberculosis)
Sequence (whole entry): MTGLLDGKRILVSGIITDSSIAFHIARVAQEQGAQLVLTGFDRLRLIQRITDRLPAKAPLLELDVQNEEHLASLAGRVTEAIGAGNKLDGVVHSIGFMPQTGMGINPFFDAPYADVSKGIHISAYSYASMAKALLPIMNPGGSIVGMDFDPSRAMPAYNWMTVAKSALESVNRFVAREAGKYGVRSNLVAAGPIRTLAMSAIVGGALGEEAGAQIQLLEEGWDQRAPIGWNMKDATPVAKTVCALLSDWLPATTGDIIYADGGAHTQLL
Experiment: Inhibition of Mycobacterium tuberculosis H37Rv ATCC 27294 InhA assessed as bacterial growth inhibition after 5 days by microplate alamar blue assay
Can you tell me MIC for the items I'm about to list?
Answers are plain numbers, in µM.

>  <COMPOUND>
O=C(OCc1cn(Cc2ccc(C(F)(F)F)cc2)nn1)c1cccnc1

>  <OUTPUT_UNIT>
µM

>  <MIC>
34.5

$$$$
>  <COMPOUND>
N#Cc1ccc(Cn2cc(CSc3nnc(-c4cccnc4)o3)nn2)cc1

>  <OUTPUT_UNIT>
µM

>  <MIC>
66.6

$$$$
>  <COMPOUND>
N#Cc1ccc(Cn2cc(COC(=O)c3cccnc3)nn2)cc1

>  <OUTPUT_UNIT>
µM

>  <MIC>
78.3

$$$$
>  <COMPOUND>
O=C(NCc1cn(Cc2ccc(F)cc2)nn1)c1cnccn1

>  <OUTPUT_UNIT>
µM

>  <MIC>
4.99

$$$$
>  <COMPOUND>
Cc1ccc(Cn2cc(CSc3nnc(-c4cccnc4)o3)nn2)cc1

>  <OUTPUT_UNIT>
µM

>  <MIC>
34.3

$$$$

Parameter requested: MIC. Apply to each item below.
1. O=C(OCc1cn(Cc2ccccc2F)nn1)c1cnccn1
2. O=C(O)c1cn(C2CC2)c2cc(N3CCNCC3)c(F)cc2c1=O [CIPROFLOXACIN]
3. N#Cc1ccc(Cn2cc(CNC(=O)c3cnccn3)nn2)cc1
4. FC(F)(F)c1ccc(Cn2cc(CSc3nnc(-c4cnccn4)o3)nn2)cc1

[A]
19.9
9.41
4.88
59.6
